Each recorded value in this set is attributed to ChEMBL document CHEMBL3286182.

Test: Intrinsic clearance in rat cryopreserved hepatocytes assessed per 10^6 cells at 1 uM up to 120 mins by LC-MS/MS analysis
Type: ADME, cell-based, Hepatocyte
Cond: read-out: CLH
Label key: 1 means hepatocyte CLint at 1 µM under 8 µL/min/1e6 cells; -1 means hepatocyte CLint at 1 µM of 8 µL/min/1e6 cells or more.

Does the reported hepatocyte CLint at 1 µM of Cn1ncc(C(=O)N2CCC(Nc3cc(=O)[nH]c4cc(F)c(F)cc34)CC2)c1Cl stay below 8 µL/min/1e6 cells?
1

Does the reported hepatocyte CLint at 1 µM of Cc1onc(C(=O)N2[C@@H]3CC[C@H]2C[C@@H](Nc2cc(=O)n(C)c4cc(F)c(F)cc24)C3)c1C stay below 8 µL/min/1e6 cells?
-1

Does the reported hepatocyte CLint at 1 µM of Cn1ncc(C(=O)N2CCC(Nc3cc(=O)[nH]c4ccc(F)cc34)CC2)c1Cl stay below 8 µL/min/1e6 cells?
1

Does the reported hepatocyte CLint at 1 µM of Cc1onc(C(=O)N2CCC(Nc3cc(=O)n(C)c4cc(F)c(F)cc34)CC2)c1C stay below 8 µL/min/1e6 cells?
-1

Does the reported hepatocyte CLint at 1 µM of Cn1ncc(C(=O)N2CCC(Nc3cc(=O)[nH]c4ccccc34)CC2)c1Cl stay below 8 µL/min/1e6 cells?
1

Does the reported hepatocyte CLint at 1 µM of Cc1onc(C(=O)N2[C@@H]3CC[C@H]2C[C@@H](Nc2cc(=O)n(C)c4nccnc24)C3)c1C stay below 8 µL/min/1e6 cells?
-1

Does the reported hepatocyte CLint at 1 µM of Cn1ncc(C(=O)N2[C@@H]3CC[C@H]2C[C@@H](Nc2n[nH]c4ccc(F)cc24)C3)c1Cl stay below 8 µL/min/1e6 cells?
-1

Does the reported hepatocyte CLint at 1 µM of Cn1ncc(C(=O)N2[C@@H]3CC[C@H]2C[C@@H](Nc2cc(=O)n(C)c4ncccc24)C3)c1Cl stay below 8 µL/min/1e6 cells?
1

###

Tested on: Mycobacterium tuberculosis
Test: Antimycobacterial activity against Mycobacterium tuberculosis H37Rv after 5 days by standard microdilution method
Assay type: functional
Cond: 120 h
Readout: MIC

Return reported MIC; argument: Cn1ncc(C(=O)N2CCC(Nc3cc(=O)[nH]c4ccc(F)cc34)CC2)c1C(F)(F)F
6.2 µM

Return reported MIC; argument: Cn1ncc(C(=O)N2CCC(Nc3cc(=O)[nH]c4c(F)c(F)ccc34)CC2)c1Cl
1.6 µM

Return reported MIC; argument: Cn1ncc(C(=O)N2CCC(Nc3cc(=O)[nH]c4cc(F)c(F)cc34)CC2)c1Cl
0.4 µM

Return reported MIC; argument: NNC(=O)c1ccncc1 [ISONIAZID]
0.45 µM

Return reported MIC; argument: Cn1ncc(C(=O)N2[C@@H]3CC[C@H]2C[C@@H](Nc2cc(=O)n(C)c4ccc(F)cc24)C3)c1Cl
0.25 µM

Return reported MIC; argument: CC(C)n1ncc(C(=O)N2CCC(Nc3cc(=O)[nH]c4ccccc34)CC2)c1Cl
100 µM

Return reported MIC; argument: Cc1c(C(=O)N2CCC(Nc3cc(=O)[nH]c4ccccc34)CC2)cnn1C
6.2 µM

Return reported MIC; argument: Cn1ncc(C(=O)N2CCC(Nc3cc(=O)[nH]c4ccccc34)CC2)c1Cl
6.25 µM

Return reported MIC; argument: Cc1c(C(=O)N2CCC(Nc3cc(=O)[nH]c4ccc(F)cc34)CC2)nnn1C
3.5 µM

Return reported MIC; argument: Cc1onc(C(=O)N2CCC(Nc3cc(=O)[nH]c4ccc(F)cc34)CC2)c1C
6.2 µM

Return reported MIC; argument: Cn1ncc(C(=O)N2[C@@H]3CC[C@H]2C[C@@H](Nc2cc(=O)n(C)c4cc(F)c(F)cc24)C3)c1Cl
0.12 µM

Return reported MIC; argument: Cc1onc(C(=O)N2[C@@H]3CC[C@H]2C[C@@H](Nc2cc(=O)[nH]c4cc(F)c(F)cc24)C3)c1C
0.06 µM

Return reported MIC; argument: COc1cc(NC2CCN(C(=O)c3cnn(C)c3Cl)CC2)c2ccccc2n1
> 200 µM

Return reported MIC; argument: Cn1ncc(C(=O)N2CCC(Nc3cc(=O)[nH]c4ccc(F)cc34)CC2)c1Cl
1.56 µM

Return reported MIC; argument: C[C@H]1COC2(CCN(c3nc(=O)c4cc(C(F)(F)F)cc([N+](=O)[O-])c4s3)CC2)O1 [BTZ-043]
0.003 µM

Return reported MIC; argument: CN(c1cc(=O)[nH]c2ccccc12)C1CCN(C(=O)c2cnn(C)c2Cl)CC1
> 250 µM

Return reported MIC; argument: C[C@H]1C[C@@H](Nc2cc(=O)[nH]c3ccccc23)CCN1C(=O)c1cnn(C)c1Cl
> 200 µM

###

Could you please report measured C0 for the items listed next?
Test: Initial plasma concentration in Wistar rat at 2 mg/kg, iv
Format: ADME, organism-based
Set-up: dose 2 mg/kg, route intravenous
# value in µM; strip the unit string

Return reported C0; argument: Cn1ncc(C(=O)N2CCC(Nc3cc(=O)[nH]c4cc(F)c(F)cc34)CC2)c1Cl
4.9

Return reported C0; argument: Cn1ncc(C(=O)N2CCC(Nc3cc(=O)n(C)c4ccccc34)CC2)c1Cl
5.4

###

Listed here: compounds with reported IC50 for Voltage-gated inwardly rectifying potassium channel KCNH2 (Homo sapiens).

Return reported IC50; argument: Cc1onc(C(=O)N2[C@@H]3CC[C@H]2C[C@@H](Nc2cc(=O)n(C)c4cc(F)c(F)cc24)C3)c1C
16 µM

Return reported IC50; argument: Cc1onc(C(=O)N2[C@@H]3CC[C@H]2C[C@@H](Nc2cc(=O)n(C)c4nccnc24)C3)c1C
> 33 µM

Return reported IC50; argument: Cn1ncc(C(=O)N2CCC(Nc3cc(=O)[nH]c4ccccc34)CC2)c1Cl
> 100 µM

Return reported IC50; argument: Cn1ncc(C(=O)N2CCC(Nc3cc(=O)n(C)c4ccccc34)CC2)c1Cl
> 33 µM

Return reported IC50; argument: Cn1ncc(C(=O)N2[C@@H]3CC[C@H]2C[C@@H](Nc2n[nH]c4ccc(F)cc24)C3)c1Cl
> 33 µM

Return reported IC50; argument: Cn1ncc(C(=O)N2[C@@H]3CC[C@H]2C[C@@H](Nc2cc(=O)n(C)c4ncccc24)C3)c1Cl
> 33 µM

Return reported IC50; argument: Cn1ncc(C(=O)N2CCC(Nc3cc(=O)[nH]c4cc(F)c(F)cc34)CC2)c1Cl
> 100 µM

###

Test: Intrinsic clearance in human liver microsomes at 1 uM up to 30 mins by LC-MS/MS analysis
Assay type: ADME
Cond: read-out: CLH
Readout: microsomal CLint at 1 µM (µL/min/mg)
# value in µL/min/mg; strip the unit string

Return reported microsomal CLint at 1 µM; argument: Cc1onc(C(=O)N2CCC(Nc3cc(=O)n(C)c4cc(F)c(F)cc34)CC2)c1C
49

Return reported microsomal CLint at 1 µM; argument: Cn1ncc(C(=O)N2CCC(Nc3cc(=O)n(C)c4ccccc34)CC2)c1Cl
14

Return reported microsomal CLint at 1 µM; argument: Cn1ncc(C(=O)N2[C@@H]3CC[C@H]2C[C@@H](Nc2n[nH]c4ccc(F)cc24)C3)c1Cl
4

###

Could you please report measured fraction unbound at 18 h, 20 µM for the items listed next?
Test: Fraction unbound in human plasma at 20 uM after 18 hrs by equilibrium dialysis method
Type: ADME, cell-free
Answer with a bare number; do not write a unit.

Return reported fraction unbound at 18 h, 20 µM; argument: Cc1onc(C(=O)N2[C@@H]3CC[C@H]2C[C@@H](Nc2cc(=O)n(C)c4cc(F)c(F)cc24)C3)c1C
0.03

Return reported fraction unbound at 18 h, 20 µM; argument: Cn1ncc(C(=O)N2[C@@H]3CC[C@H]2C[C@@H](Nc2n[nH]c4ccc(F)cc24)C3)c1Cl
0.08

Return reported fraction unbound at 18 h, 20 µM; argument: Cn1ncc(C(=O)N2CCC(Nc3cc(=O)[nH]c4ccc(F)cc34)CC2)c1Cl
0.4

Return reported fraction unbound at 18 h, 20 µM; argument: Cc1onc(C(=O)N2CCC(Nc3cc(=O)n(C)c4cc(F)c(F)cc34)CC2)c1C
0.05

Return reported fraction unbound at 18 h, 20 µM; argument: Cn1ncc(C(=O)N2CCC(Nc3cc(=O)[nH]c4cc(F)c(F)cc34)CC2)c1Cl
0.4

Return reported fraction unbound at 18 h, 20 µM; argument: Cn1ncc(C(=O)N2[C@@H]3CC[C@H]2C[C@@H](Nc2cc(=O)n(C)c4ncccc24)C3)c1Cl
0.01

Return reported fraction unbound at 18 h, 20 µM; argument: Cn1ncc(C(=O)N2CCC(Nc3cc(=O)n(C)c4ccccc34)CC2)c1Cl
0.03

Return reported fraction unbound at 18 h, 20 µM; argument: Cc1onc(C(=O)N2[C@@H]3CC[C@H]2C[C@@H](Nc2cc(=O)n(C)c4nccnc24)C3)c1C
0.05

Return reported fraction unbound at 18 h, 20 µM; argument: Cn1ncc(C(=O)N2CCC(Nc3cc(=O)[nH]c4ccccc34)CC2)c1Cl
0.3
